These data points were gathered from the supplement of paper PMC4466140.

For each of the binders below, state its SPOT peptide array binding signal intensity.
# system-tested: SpHof1-3
# experiment-notes: SPOT peptide array binding signal intensity (averaged, normalized) (arbitrary units (background-subtracted, floor 0; scale differs between SH3 domains)); higher = stronger binding of the SH3 domain to the peptide
Give bare numbers.

FVLRYYILIPHEQWD : 554
NSVPIMPTLPPRPYI : 18.8

Now let's try a different one.
Query :: Please supply the value of reported SPOT peptide array binding signal intensity for the item LLLLFVPDSPYDPAI
Result :: 85.5
